Assay: Selectivity index, ratio of Ki for binding affinity to human delta opioid receptor to Ki for binding affinity to mouse mu opioid receptor
Give measured Ratio Ki for each item. Keep answers brief.
Please give the numeric answer without any surrounding text.

Ratio Ki for `O=C(Cc1cnc[nH]1)N[C@H]1CC[C@@]2(O)[C@H]3Cc4ccc(O)c5c4[C@@]2(CCN3CC2CC2)[C@H]1O5` is 59

Ratio Ki for `O=C(Cc1ncc[nH]1)N[C@@H]1CC[C@@]2(O)[C@H]3Cc4ccc(O)c5c4[C@@]2(CCN3CC2CC2)[C@H]1O5` is 188

Ratio Ki for `O=C(N[C@@H]1CC[C@@]2(O)[C@H]3Cc4ccc(O)c5c4[C@@]2(CCN3CC2CC2)[C@H]1O5)c1cc[nH]n1` is 52

Ratio Ki for `O=C(Cc1cn[nH]c1)N[C@@H]1CC[C@@]2(O)[C@H]3Cc4ccc(O)c5c4[C@@]2(CCN3CC2CC2)[C@H]1O5` is 390

###

Give measured pEC50 for each item. Keep answers brief.
Biological target: Mu-type opioid receptor (Mus musculus, UniProt P42866)
Sequence (P42866 whole entry): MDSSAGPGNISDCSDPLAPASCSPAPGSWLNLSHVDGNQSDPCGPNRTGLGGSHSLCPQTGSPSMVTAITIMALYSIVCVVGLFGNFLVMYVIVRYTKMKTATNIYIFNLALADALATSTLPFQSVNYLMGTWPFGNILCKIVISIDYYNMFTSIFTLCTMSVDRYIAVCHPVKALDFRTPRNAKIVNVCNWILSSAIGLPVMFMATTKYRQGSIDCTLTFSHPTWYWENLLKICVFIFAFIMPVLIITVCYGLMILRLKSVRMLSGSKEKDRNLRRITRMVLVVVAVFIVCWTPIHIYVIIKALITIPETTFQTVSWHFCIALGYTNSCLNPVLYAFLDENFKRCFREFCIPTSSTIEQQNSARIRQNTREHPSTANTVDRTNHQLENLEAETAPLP
Experiment: Antagonist activity at mouse mu opioid receptor expressed in CHO cell membrane assessed as reduction in DAMGO-induced […]-GTPgammaS binding incubated for 1.5 hrs by liquid scintillation counting method
The scale used: pEC50 is minus the common logarithm of the concentration in molar units.

pEC50 for `O=C(CCc1cnc[nH]1)N[C@@H]1CC[C@@]2(O)[C@H]3Cc4ccc(O)c5c4[C@@]2(CCN3CC2CC2)[C@H]1O5` is 8.50

pEC50 for `O=C(N[C@H]1CC[C@@]2(O)[C@H]3Cc4ccc(O)c5c4[C@@]2(CCN3CC2CC2)[C@H]1O5)c1cc[nH]n1` is 8.63

pEC50 for `O=C(N[C@H]1CC[C@@]2(O)[C@H]3Cc4ccc(O)c5c4[C@@]2(CCN3CC2CC2)[C@H]1O5)c1ncc[nH]1` is 8.70

pEC50 for `O=C(Cc1cc[nH]n1)N[C@H]1CC[C@@]2(O)[C@H]3Cc4ccc(O)c5c4[C@@]2(CCN3CC2CC2)[C@H]1O5` is 8.21

pEC50 for `O=C(CCc1cn[nH]c1)N[C@@H]1CC[C@@]2(O)[C@H]3Cc4ccc(O)c5c4[C@@]2(CCN3CC2CC2)[C@H]1O5` is 8.37

pEC50 for `O=C(Cc1cnc[nH]1)N[C@@H]1CC[C@@]2(O)[C@H]3Cc4ccc(O)c5c4[C@@]2(CCN3CC2CC2)[C@H]1O5` is 8.33

pEC50 for `O=C(N[C@@H]1CC[C@@]2(O)[C@H]3Cc4ccc(O)c5c4[C@@]2(CCN3CC2CC2)[C@H]1O5)c1cc[nH]n1` is 8.74

###

Give measured Ratio Ki for each item. Keep answers brief.
Species on record: Mus musculus
Test: Selectivity index, ratio of Ki for binding affinity to mouse kappa opioid receptor to Ki for binding affinity to mouse mu opioid receptor
Please give the numeric answer without any surrounding text.

Ratio Ki for `O=C(N[C@@H]1CC[C@@]2(O)[C@H]3Cc4ccc(O)c5c4[C@@]2(CCN3CC2CC2)[C@H]1O5)c1cn[nH]c1` is 4

Ratio Ki for `O=C(Cc1cn[nH]c1)N[C@H]1CC[C@@]2(O)[C@H]3Cc4ccc(O)c5c4[C@@]2(CCN3CC2CC2)[C@H]1O5` is 118

Ratio Ki for `O=C(N[C@H]1CC[C@@]2(O)[C@H]3Cc4ccc(O)c5c4[C@@]2(CCN3CC2CC2)[C@H]1O5)c1cc[nH]n1` is 2

Ratio Ki for `O=C(Cc1cnc[nH]1)N[C@@H]1CC[C@@]2(O)[C@H]3Cc4ccc(O)c5c4[C@@]2(CCN3CC2CC2)[C@H]1O5` is 6
